Provide the recorded IC50 for the entries that follow.
target_of_assay: cloned human h-NK1 receptors expressed in CHO cells (Homo sapiens)
Construct: expressed in transfected cells; host or cells: CHO cells
Sequence (P25103 whole entry): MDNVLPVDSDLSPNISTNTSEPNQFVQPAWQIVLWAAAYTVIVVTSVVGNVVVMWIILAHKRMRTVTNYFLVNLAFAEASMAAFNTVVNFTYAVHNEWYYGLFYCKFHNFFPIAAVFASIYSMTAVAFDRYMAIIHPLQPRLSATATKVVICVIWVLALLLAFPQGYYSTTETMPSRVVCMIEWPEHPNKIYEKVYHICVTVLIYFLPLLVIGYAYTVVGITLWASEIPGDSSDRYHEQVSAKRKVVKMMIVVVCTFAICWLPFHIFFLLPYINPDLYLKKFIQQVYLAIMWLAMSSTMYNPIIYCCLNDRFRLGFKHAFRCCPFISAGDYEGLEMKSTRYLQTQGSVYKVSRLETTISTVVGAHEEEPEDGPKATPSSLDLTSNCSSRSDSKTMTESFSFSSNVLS
procedure_summary: Binding experiment for h-NK1 receptors ([3H]-Substance P displacement)
settings: read-out: h-NK1 pIC50 (converted)

q: Give the reported IC50 for Cc1oncc1C(=O)N1CCC(N2CCN(C3CCN(C(=O)c4cc(C(F)(F)F)cc(C(F)(F)F)c4)C(Cc4ccccc4)C3)CC2)CC1 (stereo not shown) (system: cloned human h-NK1 receptors expressed in CHO cells (Homo sapiens)).
a: 1.58 nM

q: Give the reported IC50 for O=C(c1cc(C(F)(F)F)cc(C(F)(F)F)c1)N1CCC(N2CCN(C3CCNCC3)CC2)CC1Cc1ccccc1 (stereo not shown) (system: cloned human h-NK1 receptors expressed in CHO cells (Homo sapiens)).
a: 2.51 nM

q: Give the reported IC50 for Cc1cc(C)cc(CN2CCC(N3CCN([C@H]4CCN(C(=O)c5cc(C(F)(F)F)cc(C(F)(F)F)c5)[C@H](Cc5ccccc5)C4)CC3)CC2)c1 (system: cloned human h-NK1 receptors expressed in CHO cells (Homo sapiens)).
a: 0.398 nM

q: Give the reported IC50 for COc1ccc(C)cc1S(=O)(=O)N1CCC(N2CCN(C3CCN(C(=O)c4cc(C(F)(F)F)cc(C(F)(F)F)c4)C(Cc4ccccc4)C3)CC2)CC1 (stereo not shown) (system: cloned human h-NK1 receptors expressed in CHO cells (Homo sapiens)).
a: 25.1 nM

Below are some molecules; for each one, tell me its IC50.
1. Cc1ccc(O)c(C(=O)N2CCC(N3CCN([C@H]4CCN(C(=O)c5cc(C(F)(F)F)cc(C(F)(F)F)c5)[C@H](Cc5ccccc5)C4)CC3)CC2)c1
2. O=C(C(c1ccccc1)N1CCC(N2CCN(C3CCN(C(=O)c4cc(C(F)(F)F)cc(C(F)(F)F)c4)C(Cc4ccccc4)C3)CC2)CC1)N1CCOCC1 (stereo not shown)
3. O=C(c1cc(C(F)(F)F)cc(C(F)(F)F)c1)N1CC[C@H](N2CCN(C3CCN(c4ncccn4)CC3)CC2)C[C@H]1Cc1ccccc1
4. CC(C)(C)OC(=O)N1CCCCC1C(=O)N1CCC(N2CCN([C@H]3CCN(C(=O)c4cc(C(F)(F)F)cc(C(F)(F)F)c4)[C@H](Cc4ccccc4)C3)CC2)CC1 (stereo partly shown)
5. O=C(C(c1ccccc1)N1CCCC1)N1CCC(N2CCN(C3CCN(C(=O)c4cc(C(F)(F)F)cc(C(F)(F)F)c4)C(Cc4ccccc4)C3)CC2)CC1 (stereo not shown)

a:
1. 1 nM
2. 1 nM
3. 1 nM
4. 2.51 nM
5. 1 nM

* * *

target_of_assay: cloned human h-NK2 receptors expressed in Sf9 cells (Homo sapiens, UniProt P21452)
Construct: expressed in transfected cells; host or cells: Sf9 cells
Sequence (P21452 whole entry): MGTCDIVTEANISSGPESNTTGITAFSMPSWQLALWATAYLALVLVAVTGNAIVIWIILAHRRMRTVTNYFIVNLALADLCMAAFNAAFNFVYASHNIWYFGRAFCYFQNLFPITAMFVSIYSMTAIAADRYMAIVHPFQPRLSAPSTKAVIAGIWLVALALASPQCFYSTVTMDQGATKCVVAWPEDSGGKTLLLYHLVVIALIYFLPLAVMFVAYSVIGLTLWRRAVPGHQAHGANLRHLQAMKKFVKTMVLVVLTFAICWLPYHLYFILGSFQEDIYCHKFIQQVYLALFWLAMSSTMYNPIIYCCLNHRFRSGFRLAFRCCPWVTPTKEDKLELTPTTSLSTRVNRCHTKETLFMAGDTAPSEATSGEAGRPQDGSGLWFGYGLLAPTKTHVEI
procedure_summary: Binding experiment for h-NK2 receptors ([3H]-SR-48968 displacement)
settings: [3H]-SR-48968, Sf9 cells; read-out: h-NK2 pIC50 (converted)
property_measured: IC50
Report field: quantity (unit follows the number).

Guide cases for IC50, answers given:
q: Look at this molecule and give its reported IC50. O=C(c1cccnc1)N1CCC(N2CCN([C@H]3CCN(C(=O)c4cc(C(F)(F)F)cc(C(F)(F)F)c4)[C@H](Cc4ccccc4)C3)CC2)CC1
a: 794 nM

q: Look at this molecule and give its reported IC50. Cc1nnsc1C(=O)N1CCC(N2CCN([C@@H]3CCN(C(=O)c4cc(C(F)(F)F)cc(C(F)(F)F)c4)[C@H](Cc4ccccc4)C3)CC2)CC1
a: 794 nM

Now let's try a different one.
q: Look at this molecule and give its reported IC50. O=C(C(c1ccccc1)N1CCOCC1)N1CCC(N2CCN([C@H]3CCN(C(=O)c4cc(C(F)(F)F)cc(C(F)(F)F)c4)[C@H](Cc4ccccc4)C3)CC2)CC1 (stereo partly drawn)
a: 794 nM
